Origin of measurements: patent US9980943B2

System: β-galactosidase in CMV-LacZ C2C12 myotubes
Test: CMV-LacZ secondary screen in C2C12 myotubes (β-Gal stabilizing assay)
Assay type: cell-based, mouse
Settings: 0.5 uM; C2C12 CMV-LacZ myotubes; fold relative to DMSO
Criterion: CMV-LACZ in Myotubes, signal relative to DMSO strictly less than 1. Met: true (1). Not met: false (0).

[[record]]
molecule = "Nc1ncnc(N2CCc3ccccc32)c1[N+](=O)[O-] [MLS000683232-01]"
class_label = "true (1)"

[[record]]
molecule = "COC(=O)c1ccc(N=Nc2ccccc2)cc1 [MLS001005712-01]"
class_label = "false (0)"

[[record]]
molecule = "Cc1cc([N+](=O)[O-])ccc1NC(=O)C(C)N1CCN(c2ccccn2)CC1 (centres unmarked) [MLS000764729-01]"
class_label = "false (0)"

[[record]]
molecule = "N#Cc1ccc(Sc2nc3ccccc3[nH]2)cc1C#N [MLS000110418-01]"
class_label = "false (0)"

[[record]]
molecule = "CCOc1ccc2nc(Cl)sc2c1 [MLS000678673-01]"
class_label = "false (0)"


---

System: α7 integrin (LacZ reporter in α7βgal+/− myoblasts)
Assay: Myoblast α7+/LacZ integrin FDG assay (Burkin assay in myoblasts, 96-well)
Type: cell-based, mouse
Conditions: 1 uM; α7+/LacZ myoblasts, 96-well
measured-property: Burkin Assay in Myoblasts, value relative to DMSO

[[record]]
molecule = "COC(=O)c1ccc(COC(=O)CNC(=O)c2cccs2)cc1"
observed_result = 0.9524

[[record]]
molecule = "CCS(=O)(=O)N1CCCC(C(=O)c2ccc(OC)cc2C)C1 (centres unmarked)"
observed_result = 1.036

[[record]]
molecule = "O=C(NC1CCCC1)c1ccc(CS(=O)(=O)Cc2ccccc2F)o1"
observed_result = 0.8373

[[record]]
molecule = "NS(=O)(=O)c1ccc(NC(=O)c2cc(-c3ccccc3O)n[nH]2)cc1"
observed_result = 0.8074

[[record]]
molecule = "O=[N+]([O-])c1cccc(S(=O)(=O)N2CCN(S(=O)(=O)N3CCOCC3)CC2)c1"
observed_result = 1.088

[[record]]
molecule = "O=Cc1ccc(C(=O)OCC(=O)N2CCCC2)cc1"
observed_result = 0.9654

[[record]]
molecule = "COc1cc(NC(=O)CN(C)S(=O)(=O)c2ccc3c(c2)CC(C)N3C(C)=O)cc(OC)c1OC (centres unmarked)"
observed_result = 0.8787

[[record]]
molecule = "COc1ccc(-n2c(SCC(=O)Nc3cccc(C(=O)O)c3)nnc2-c2ccco2)cc1"
observed_result = 0.926


---

Test system: α7 integrin (LacZ reporter in α7βgal+/− myoblasts)
Test: Myoblast α7+/LacZ integrin FDG assay (Burkin assay in myoblasts, 96-well)
Type: cell-based, mouse
Details: 1 uM; α7+/LacZ myoblasts, 96-well
Listed below: Burkin Assay in Myoblasts, signal relative to DMSO values for each entry.
measured-property: Burkin Assay in Myoblasts, signal relative to DMSO

[[record]]
compound = "Cn1ccc(C(=O)Nc2cccnc2Cl)n1 [MLS001147478-01]"
observed_result = 1.091

[[record]]
compound = "COc1ccc(N2CCN(CCC3Oc4cc([N+](=O)[O-])ccc4NC3=O)CC2)cc1 (stereo not drawn) [MLS000696445-01]"
observed_result = 0.5621

[[record]]
compound = "CCOC(=O)C1(Cc2cccc(Cl)c2)CCCN(C(=O)CCSC)C1 (stereo not drawn) [MLS001000299-01]"
observed_result = 0.9953

[[record]]
compound = "COC(=O)c1cc(S(=O)(=O)NCC2CCN(Cc3ccc(Cl)cc3)CC2)cn1C [MLS001095033-01]"
observed_result = 1.186

[[record]]
compound = "COc1ccc(Cl)cc1NC(=O)c1cc(-c2cc(C)ccc2O)n[nH]1 [MLS000779126-01]"
observed_result = 1.115

[[record]]
compound = "COc1ccc(NC(=O)c2cccc(N3C(=O)c4ccc(C(=O)Nc5ccc(OC)c(O)c5)cc4C3=O)c2)cc1O [MLS001124732-01]"
observed_result = 1.071

[[record]]
compound = "Cc1ccccc1-n1c(Cc2cccs2)n[nH]c1=S [MLS000568234-01]"
observed_result = 1.032

[[record]]
compound = "COc1ccc2oc(C[S+]([O-])c3ccccc3)c(C(=O)O)c2c1 (stereo not drawn) [MLS001208858-01]"
observed_result = 1.003

[[record]]
compound = "N#CC1=C2SCN(c3ccccc3)CN2C(=O)CC1c1cccs1 (stereo not drawn) [MLS000080654-01]"
observed_result = 0.923

[[record]]
compound = "Cc1ccsc1-c1n[nH]c(=S)n1C1CCCCC1 [MLS000698617-01]"
observed_result = 1.003

[[record]]
compound = "Cc1nnc(SCC(=O)c2ccc(Br)cc2)s1 [MLS000420298-01]"
observed_result = 1.243

[[record]]
compound = "CCCNC(=S)N1CCC(NC(=O)c2ccc(OC)cc2)CC1 [MLS001211651-01]"
observed_result = 1.124

[[record]]
compound = "COc1ccccc1C(=O)OCc1ccc2sc(C)nc2c1 [MLS001006798-01]"
observed_result = 0.9282

[[record]]
compound = "CN(C)C1(CN=Cc2cc(Cl)cc([N+](=O)[O-])c2O)CCCCC1 [MLS001179695-01]"
observed_result = 0.9441

[[record]]
compound = "COCCSc1ccccc1C(=O)Nc1cc(C)cc(C)c1 [MLS000675441-01]"
observed_result = 0.8764

[[record]]
compound = "CCOc1ccccc1NC(=O)c1cccc2c1C(=O)N(C1CCCCC1)C2 [MLS000912726-01]"
observed_result = 1.177

[[record]]
compound = "O=c1oc2c(-c3cccc(F)c3)cc(O)cc2s1 [MLS000680049-01]"
observed_result = 1.103

[[record]]
compound = "CCOC(=O)c1sc(=N)n(-c2ccc(OC)cc2)c1C [MLS000090135-01]"
observed_result = 1.166

[[record]]
compound = "O=C(Nc1cc(-c2nc3ccccc3s2)ccc1Cl)c1ccc2c(c1)OCO2 [MLS000560266-01]"
observed_result = 0.8556

[[record]]
compound = "COc1ccc(CN2CCNC(=O)C2CC(=O)NCCc2c[nH]c3ccccc23)c(OC)c1 (stereo not drawn) [MLS000734270-01]"
observed_result = 1.048

[[record]]
compound = "CCCCCCC1CC(=O)NC(=O)N1 (stereo not drawn) [MLS000768008-01]"
observed_result = 0.9618

[[record]]
compound = "CN(C)CCNc1ncnc2sc(-c3ccccc3)cc12 [MLS001179717-01]"
observed_result = 0.864

[[record]]
compound = "Cl.O=C1C2CCCN2C(=O)N1CCCN1CCN(c2cccc(Br)c2)CC1 (stereo not drawn) [MLS001180929-01]"
observed_result = 1.0555

[[record]]
compound = "COc1ccc(N=Nc2ccc(N)nc2N)cc1 [MLS000736846-01]"
observed_result = 1.2858

[[record]]
compound = "CCn1c(=O)c2cc(C(=O)N(C)c3cc(C)ccc3OC)sc2c2ccccc21 [MLS000731285-01]"
observed_result = 0.9235

[[record]]
compound = "Cc1cccc2c(N=Nc3ccc(S(=O)(=O)Nc4ccc(Cl)cc4)cc3[N+](=O)[O-])c(O)[nH]c12 [MLS000393762-01]"
observed_result = 0.9428

[[record]]
compound = "CCN(C(=O)c1ccc(S(=O)(=O)N(C)C)cc1)C(C)C(=O)Nc1ccc(C)cc1 (stereo not drawn) [MLS001170856-01]"
observed_result = 0.8651

[[record]]
compound = "COc1cc(NC(=O)OCc2ccccc2)c2ncccc2c1 [MLS002667707-01]"
observed_result = 0.9172

[[record]]
compound = "CCOC(=O)c1nnn(-c2nonc2OC)c1-c1ccccc1 [MLS000045588-01]"
observed_result = 1.107

[[record]]
compound = "CC1CCCCN1c1ncnc(N)c1[N+](=O)[O-] (stereo not drawn) [MLS000683234-01]"
observed_result = 0.8341

[[record]]
compound = "N#Cc1ccccc1S(=O)(=O)N1CCN(C(=O)C2CCCCC2)CC1 [MLS002251986-01]"
observed_result = 0.9231

[[record]]
compound = "Cc1cccc(Sc2nc(-c3ccccc3)ccc2C#N)c1 [MLS000325736-01]"
observed_result = 0.7875

[[record]]
compound = "Cc1cc(C)cc(OCC(=O)N/N=C/c2ccccn2)c1 [MLS000710669-01]"
observed_result = 1.05

[[record]]
compound = "Cc1ccc(NS(=O)(=O)c2cccc(C(=O)O)c2)cc1S(=O)(=O)N1CCOCC1 [MLS000393966-01]"
observed_result = 0.9626

[[record]]
compound = "COc1ccc(Cl)cc1NC(=O)CC(=O)Nc1cc(Cl)ccc1OC [MLS001166704-01]"
observed_result = 1.165

[[record]]
compound = "CC(C)CN(C(=O)c1cccc(Cl)c1)c1c(N)n(Cc2ccccc2)c(=O)[nH]c1=O [MLS002163670-01]"
observed_result = 1.234

